Experiment: Intrinsic clearance in rat liver microsomes preincubated for 10 mins followed by NADPH addition and further incubated upto 60 mins by LC-MS/MS analysis
Type: ADME, Microsome
Details: time <=70 min, read-out: CLH
assay-metric: CLint scaled (mL/min/kg)
// note: answer is a bare numeric in mL/min/kg

# input-smiles, assay-metric, endpoint-result
rows = [
    ("Cc1ncc2n1-c1ccc(Cl)cc1C(c1ccccc1F)=NC2", "CLint scaled", 939),
]

**Query** CLint scaled for CC(C)Oc1cc(F)ccc1Nc1ncnc2ccc(-c3ccc(C(=O)N4CCNCC4)cc3)nc12 ?
**Result** 68.8

----------
Reported values of pIC50 for individual entries
Biological target: MAP kinase-interacting serine/threonine-protein kinase 1 (Homo sapiens)
Sequence (Q9BUB5 whole entry): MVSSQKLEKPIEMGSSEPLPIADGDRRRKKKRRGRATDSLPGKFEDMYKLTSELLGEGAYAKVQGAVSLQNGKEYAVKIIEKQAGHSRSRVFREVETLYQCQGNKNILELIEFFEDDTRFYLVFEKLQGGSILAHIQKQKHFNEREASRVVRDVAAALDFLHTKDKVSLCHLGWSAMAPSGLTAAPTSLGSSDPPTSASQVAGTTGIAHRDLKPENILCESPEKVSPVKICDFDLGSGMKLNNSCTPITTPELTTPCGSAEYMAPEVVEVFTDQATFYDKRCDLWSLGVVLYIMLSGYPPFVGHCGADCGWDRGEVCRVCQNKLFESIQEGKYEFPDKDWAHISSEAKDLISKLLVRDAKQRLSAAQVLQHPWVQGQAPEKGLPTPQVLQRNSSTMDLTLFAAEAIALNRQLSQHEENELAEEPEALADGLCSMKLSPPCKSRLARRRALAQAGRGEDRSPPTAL
Assay: Inhibition of MKN1 (unknown origin) in presence of ATP by HTRF assay
As a rule, pIC50 stands for the negative log10 of the concentration, concentration in M.

# input-smiles, endpoint-result
records = [
    ("O=C(c1ccc(-c2ccc3ncnc(Nc4ccc(O)cc4)c3n2)cc1)N1CCNCC1", 8.07),
    ("COc1cc(Nc2ncnc3ccc(-c4ccc(C(=O)N5CCNCC5)cc4)nc23)ccc1F", 9.00),
    ("COc1cc(F)ccc1Nc1ncnc2ccc(-c3ccc(C(=O)N4CCNCC4)cc3)nc12", 8.92),
    ("O=C(c1ccc(-c2ccc3ncnc(Nc4ccc(F)cc4)c3n2)cc1)N1CCNCC1", 8.96),
]

# input for lookup
**Query** pIC50 for CC(C)Oc1cc(F)ccc1Nc1ncnc2ccc(-c3ccc(C(=O)N4CCNCC4)cc3)nc12 ?
**Result** 9.00

Reference source for all entries: ChEMBL document CHEMBL4825757
